condition_parameters: in cyclohexane, 323.15 K
quantity_name: solubility (mole fraction)
Lab note: jot the number down without any unit.

I have this compound here, CC(=O)N(CC(O)CO)c1c(I)c(C(=O)NCC(O)CO)c(I)c(C(=O)NCC(O)CO)c1I (stereo unspecified) , and I need its recorded solubility (mole fraction). 5.96e-05

---

condition_parameters: in cyclohexane, 308.15 K
quantity_name: solubility (mole fraction)
Lab note: jot the number down without any unit.

I have this compound here, CC(=O)N(CC(O)CO)c1c(I)c(C(=O)NCC(O)CO)c(I)c(C(=O)NCC(O)CO)c1I (stereo unspecified) , and I need its recorded solubility (mole fraction). 3.14e-05

---

condition_parameters: in n-butanol, 283.15 K
quantity_name: solubility (mole fraction)

I have this compound here, CC(=O)N(CC(O)CO)c1c(I)c(C(=O)NCC(O)CO)c(I)c(C(=O)NCC(O)CO)c1I (stereo unspecified) , and I need its recorded solubility (mole fraction). 0.000235

---

condition_parameters: in toluene, 303.15 K
quantity_name: solubility (mole fraction)

I have this molecule here, CC(=O)N(CC(O)CO)c1c(I)c(C(=O)NCC(O)CO)c(I)c(C(=O)NCC(O)CO)c1I (stereo unspecified) , and I need its recorded solubility (mole fraction). 6.28e-05

---

condition_parameters: in isopropanol, 303.15 K
quantity_name: solubility (mole fraction)
Lab note: jot the number down without any unit.

I have this compound here, CC(=O)N(CC(O)CO)c1c(I)c(C(=O)NCC(O)CO)c(I)c(C(=O)NCC(O)CO)c1I (stereo unspecified) , and I need its recorded solubility (mole fraction). 0.000806

---

condition_parameters: in ethyl acetate, 313.15 K
quantity_name: solubility (mole fraction)
Lab note: jot the number down without any unit.

I have this compound here, CC(=O)N(CC(O)CO)c1c(I)c(C(=O)NCC(O)CO)c(I)c(C(=O)NCC(O)CO)c1I (stereo unspecified) , and I need its recorded solubility (mole fraction). 0.000355

---

condition_parameters: in acetonitrile, 318.15 K
quantity_name: solubility (mole fraction)
Lab note: jot the number down without any unit.

I have this compound here, CC(=O)N(CC(O)CO)c1c(I)c(C(=O)NCC(O)CO)c(I)c(C(=O)NCC(O)CO)c1I (stereo unspecified) , and I need its recorded solubility (mole fraction). 0.000298

---

condition_parameters: in DMSO, 323.15 K
quantity_name: solubility (mole fraction)
Lab note: jot the number down without any unit.

I have this compound here, CC(=O)N(CC(O)CO)c1c(I)c(C(=O)NCC(O)CO)c(I)c(C(=O)NCC(O)CO)c1I (stereo unspecified) , and I need its recorded solubility (mole fraction). 0.000869

---

condition_parameters: in ethyl acetate, 283.15 K
quantity_name: solubility (mole fraction)
Lab note: jot the number down without any unit.

I have this molecule here, CC(=O)N(CC(O)CO)c1c(I)c(C(=O)NCC(O)CO)c(I)c(C(=O)NCC(O)CO)c1I (stereo unspecified) , and I need its recorded solubility (mole fraction). 0.000126

---

condition_parameters: in ethyl acetate, 303.15 K
quantity_name: solubility (mole fraction)
Lab note: jot the number down without any unit.

I have this compound here, CC(=O)N(CC(O)CO)c1c(I)c(C(=O)NCC(O)CO)c(I)c(C(=O)NCC(O)CO)c1I (stereo unspecified) , and I need its recorded solubility (mole fraction). 0.000256

---

condition_parameters: in ethanol, 283.15 K
quantity_name: solubility (mole fraction)
Lab note: jot the number down without any unit.

I have this molecule here, CC(=O)N(CC(O)CO)c1c(I)c(C(=O)NCC(O)CO)c(I)c(C(=O)NCC(O)CO)c1I (stereo unspecified) , and I need its recorded solubility (mole fraction). 0.00113
